# Tested on: Pseudomonas aeruginosa
# assay-text: Compound was tested for its minimal inhibitory constant against Gram-negative microorganism Pseudomonas aeruginosa E-2 (Pa(E))
# Type: functional
Each entry below carries its recorded MIC.
Respond numerically; units are µg/mL and should not be typed.

Before answering, review these 5 worked examples.
CN1Cc2csc3c(C(=O)O)c(=O)c4cc(F)c(N5CCOC(CO)C5)c1c4n23 (stereo unspecified); 1.56
COCC1CN(c2c(F)cc3c(=O)c(C(=O)O)c4scc5n4c3c2N(C)C5)CCO1 (stereo unspecified); 3.13
CC1CN(c2c(F)cc3c(=O)c(C(=O)O)c4scc5n4c3c2N(C)C5)CCO1 (stereo unspecified); 0.78
CCC1CN(c2c(F)cc3c(=O)c(C(=O)O)c4scc5n4c3c2N(C)C5)CCO1 (stereo unspecified); 1.56
CN1Cc2csc3c(C(=O)O)c(=O)c4cc(F)c(N5CCOCC5)c1c4n23; 0.39

As a next step, examine the molecule that follows.
Asked: Requested field: MIC. Item: CC1COc2c(N3CCN(C)CC3)c(F)cc3c(=O)c(C(=O)O)cn1c23 (stereo unspecified)
Given back: 1.56
